Study system: Sushi domains (SD1/2) protein of the GABAB1a (GB1a) subunit, recombinant
Sequence (Q9Z0U4 29-158): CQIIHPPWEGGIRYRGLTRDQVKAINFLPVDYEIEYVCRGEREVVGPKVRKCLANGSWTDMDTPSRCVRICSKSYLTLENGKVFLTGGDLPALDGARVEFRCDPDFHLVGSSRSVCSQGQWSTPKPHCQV
Assay protocol: FP competition with AJAP-1probe
List of pKi values.
API: returns pKi as number; meaning -log10 of concentration in mol/L.

Worked examples follow.
[
  {
    "Binder": "Ac-TETEFIAWGPTGDED-NH2 [peptide 15 (Ac-…-NH2)]",
    "Reported metric": "pKi",
    "Assay value": 7.64
  },
  {
    "Binder": "Ac-DDSDVWWGGADTDYADG-NH2",
    "Reported metric": "pKi",
    "Assay value": 6.16
  },
  {
    "Binder": "Ac-EEDDSDVWWGGADTDYAD-NH2 [Peptide 36 (Ac-…-NH2)]",
    "Reported metric": "pKi",
    "Assay value": 6.61
  }
]

(Q) Item under review: Ac-ADAEEDDSDVWWGGA-NH2 . Reported pKi?
(A) 5.82
